Where these numbers come from: paper PMC7718273

Experiment: Pharmacokinetic study in monkeys
Type: in vivo
Conditions: male, cynomolgus, cynomolgus monkey, plasma, inhaled or intranasal; monkey, 30 mg/kg intranasally
assay metric: Tmax (h)
Dear colleague, please return just the value in h, with no unit written.

*Q* Name the reported Tmax value associated with the compound N#Cc1ccc(Cc2nc(C(=O)NCC(=O)N3CC(F)(F)C[C@H]3C#N)cs2)cc1 [BR103354]
*A* 2.3

----------
Assay: Pharmacokinetic study in monkeys
Type: in vivo
Details: male, cynomolgus, cynomolgus monkey, plasma, inhaled or intranasal; monkey, 30 mg/kg intranasally; read-out: AUC(0–6 h)
assay metric: AUC(0-t) (ng·h/mL)
Dear colleague, please return just the value in ng·h/mL, with no unit written.

*Q* Name the reported AUC(0-t) value associated with the molecule N#Cc1ccc(Cc2nc(C(=O)NCC(=O)N3CC(F)(F)C[C@H]3C#N)cs2)cc1 [BR103354]
*A* 6400

----------
Assay: Pharmacokinetic study in mice
Assay type: in vivo, C57BL/6J mice
Conditions: male, C57BL/6J, plasma, po; mouse, p.o. 5 mg/kg
assay metric: Cmax
Dear colleague, please send the value followed by its unit.

*Q* Name the reported Cmax value associated with the compound "N#Cc1ccc(Cc2nc(C(=O)NCC(=O)N3CC(F)(F)C[C@H]3C#N)cs2)cc1"
*A* 7200 ng/mL

----------
Assay: Pharmacokinetic study in monkeys
Format: in vivo
Conditions: male, cynomolgus, cynomolgus monkey, plasma, inhaled or intranasal; monkey, 10 mg/kg intranasally
assay metric: Cmax (ng/mL)
Dear colleague, please return just the value in ng/mL, with no unit written.

*Q* Name the reported Cmax value associated with the molecule "N#Cc1ccc(Cc2nc(C(=O)NCC(=O)N3CC(F)(F)C[C@H]3C#N)cs2)cc1"
*A* 420

----------
Test: Pharmacokinetic study in monkeys
Type: in vivo
Details: male, cynomolgus, cynomolgus monkey, plasma, inhaled or intranasal; monkey, 30 mg/kg intranasally
assay metric: Cmax (ng/mL)
Dear colleague, please return just the value in ng/mL, with no unit written.

*Q* Name the reported Cmax value associated with the molecule "N#Cc1ccc(Cc2nc(C(=O)NCC(=O)N3CC(F)(F)C[C@H]3C#N)cs2)cc1"
*A* 2000

----------
Experiment: Thermodynamic solubility
Assay type: physicochemical
Conditions: aqueous buffer, thermodynamic from solid; pH 3.0
assay metric: solubility thermodynamic (µg/mL)
Dear colleague, please return just the value in µg/mL, with no unit written.

*Q* Name the reported solubility thermodynamic value associated with the compound N#Cc1ccc(Cc2nc(C(=O)NCC(=O)N3CC(F)(F)C[C@H]3C#N)cs2)cc1 [BR103354]
*A* 165

----------
Test: Plasma protein binding, human
Assay type: in vitro ADME
Conditions: human (H), read-out: Plasma protein binding (% bound) (converted)
assay metric: fraction unbound at 1 µg/mL
The reply should be a number, written without any unit.

*Q* Name the reported fraction unbound at 1 µg/mL value associated with the compound "N#Cc1ccc(Cc2nc(C(=O)NCC(=O)N3CC(F)(F)C[C@H]3C#N)cs2)cc1"
*A* 0.33

----------
Test: Microsomal stability, rat
Assay type: in vitro ADME
Conditions: liver microsomes, pH 7.4, rat (R), 0.5 mg/mL, NADPH, read-out: Microsomal stability (% remaining at 60 min)
assay metric: remaining at 1 h, 1 µM (%)
Dear colleague, please return just the value in %, with no unit written.

*Q* Name the reported remaining at 1 h, 1 µM value associated with the molecule N#Cc1ccc(Cc2nc(C(=O)NCC(=O)N3CC(F)(F)C[C@H]3C#N)cs2)cc1 [BR103354]
*A* 87
